From: paper PMC3589825

# target-desc: T1, P-TEFb (CDK9 1–330 / cyclin T1 1–264) (human, UniProt P50750 1-330; O60563 1-264)
# T1 construct: also called positive transcription elongation factor b; source: High5 insect cells (baculovirus), purified (His-Trap, TEV digest, His-Trap); not shown: His-tag, N-terminal, cleaved
# T1 sequence (P50750 1-330, chain 1 of 2): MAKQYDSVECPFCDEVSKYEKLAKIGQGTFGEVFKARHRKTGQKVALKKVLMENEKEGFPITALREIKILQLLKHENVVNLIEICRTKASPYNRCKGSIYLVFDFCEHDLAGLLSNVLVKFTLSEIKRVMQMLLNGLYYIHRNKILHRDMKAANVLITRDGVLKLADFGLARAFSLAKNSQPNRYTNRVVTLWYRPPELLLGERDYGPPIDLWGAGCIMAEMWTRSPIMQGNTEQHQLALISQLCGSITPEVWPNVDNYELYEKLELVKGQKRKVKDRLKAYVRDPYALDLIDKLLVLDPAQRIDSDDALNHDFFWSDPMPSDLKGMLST
# T1 sequence (O60563 1-264, chain 2 of 2): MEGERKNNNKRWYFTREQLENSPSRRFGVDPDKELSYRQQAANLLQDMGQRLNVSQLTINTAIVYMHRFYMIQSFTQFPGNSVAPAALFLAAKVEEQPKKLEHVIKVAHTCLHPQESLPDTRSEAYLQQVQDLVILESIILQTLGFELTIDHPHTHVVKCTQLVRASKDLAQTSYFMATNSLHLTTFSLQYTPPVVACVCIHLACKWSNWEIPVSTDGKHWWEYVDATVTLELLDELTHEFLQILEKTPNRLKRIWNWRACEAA
# test-name: fluorescence polarisation
# experimental-parameters: both partners purified
pKd: −log10 of the molar value. GABA = NCCCC(=O)O
experimental-endpoint: pKd

INSERT INTO assay_data (binder, experimental_endpoint, measured_result) VALUES
  ('{FAM-GABA}-SPLFAEPYKVTSKEDKLSSRIQSMLGNYDEMKDFIG-NH2 (source: synthetic peptide (University of Utah DNA/Peptide Facility)) [fluorescein-labeled AFF4(32–67) peptide]', 'pKd', 7.44);
